# Tested on: Escherichia coli
# assayDetails: Antimicrobial activity against Escherichia coli ATCC 14169 at 25 ug/ml by agar diffusion method
# Format: functional
# details: read-out: DIZ
Think of 20 mm as a floor: if zone of inhibition at 25 µg/mL stands on it or above, it is t; beneath it, f.

{"columns": ["molecule", "labelClass"],
 "data": [
  ["CC1(C)S[C@@H]2[C@H](NC(=O)[C@H](N)c3ccccc3)C(=O)N2[C@H]1C(=O)O", "t"],
  ["CCN(CC)c1ccc2c(c1)Oc1ncn(N)c(=N)c1C2c1ccc(Cl)cc1 (stereo not given)", "f"],
  ["CCN(CC)c1ccc2c(c1)Oc1ncn(N)c(=N)c1C2c1ccc(Br)cc1 (stereo not given)", "f"],
  ["CCN(CC)c1ccc2c(c1)Oc1ncn(C)c(=N)c1C2c1ccc(Cl)cc1 (stereo not given)", "t"]
]}

###

zone of inhibition at 25 µg/mL: recorded values
# System: Bacillus pumilus
# assayDetails: Antimicrobial activity against Bacillus pumilus ATCC 14884 at 25 ug/ml by agar diffusion method
# Format: functional
# details: read-out: DIZ

{"columns": ["compound", "zone of inhibition at 25 µg/mL"],
 "data": [
  ["CCN(CC)c1ccc2c(c1)Oc1ncn(N)c(=N)c1C2c1ccc(Br)cc1 (stereo not given)", "25 mm"],
  ["CCN(CC)c1ccc2c(c1)Oc1ncn(C)c(=N)c1C2c1ccc(Cl)cc1 (stereo not given)", "25 mm"],
  ["CCN(CC)c1ccc2c(c1)Oc1ncnc(N)c1C2c1ccc(Cl)cc1 (stereo not given)", "25 mm"],
  ["CC1(C)S[C@@H]2[C@H](NC(=O)[C@H](N)c3ccccc3)C(=O)N2[C@H]1C(=O)O [AMPICILLIN]", "20 mm"],
  ["CCN(CC)c1ccc2c(c1)Oc1ncn(N)c(=N)c1C2c1ccc(Cl)cc1 (stereo not given)", "27 mm"]
]}

###

# Tested on: Staphylococcus aureus
# assayDetails: Antimicrobial activity against Staphylococcus aureus ATCC 29737 at 25 ug/ml by agar diffusion method
# Type: functional
Activity calls are given as the source filed them. No cut-off for these calls is given here.

{"columns": ["compound", "diameter of the inhibition zone (DIZ)"],
 "data": [
  ["CCO/C=N/C1=C(C#N)C(c2ccc(Cl)cc2)c2ccc(N(CC)CC)cc2O1 (stereo not given)", "inactive"],
  ["CCN(CC)c1ccc2c(c1)OC(N)=C(C#N)C2c1ccc(F)cc1 (stereo not given)", "inactive"],
  ["CCN(CC)c1ccc2c(c1)OC(/N=C/N)=C(C#N)C2c1ccc(Cl)cc1 (stereo not given)", "inactive"],
  ["CCN(CC)c1ccc2c(c1)Oc1nc(C)[nH]c(=O)c1C2c1ccc(Cl)cc1 (stereo not given)", "inactive"],
  ["CCOC(=O)C1=C(N)Oc2cc(N(CC)CC)ccc2C1c1ccc(Cl)cc1 (stereo not given)", "inactive"]
]}

###

# Tested on: Bordetella bronchiseptica
# assayDetails: Antimicrobial activity against Bordetella bronchiseptica ATCC 4617 at 25 ug/ml by agar diffusion method
# Type: functional
# details: read-out: DIZ

{"columns": ["molecule", "zone of inhibition at 25 µg/mL, mm"],
 "data": [
  ["CCN(CC)c1ccc2c(c1)Oc1ncn(C)c(=N)c1C2c1ccc(Cl)cc1 (stereo not given)", 20],
  ["CCN(CC)c1ccc2c(c1)Oc1ncnc(N)c1C2c1ccc(Cl)cc1 (stereo not given)", 21],
  ["CCN(CC)c1ccc2c(c1)Oc1ncn(N)c(=N)c1C2c1ccc(Cl)cc1 (stereo not given)", 22],
  ["CC1(C)S[C@@H]2[C@H](NC(=O)[C@H](N)c3ccccc3)C(=O)N2[C@H]1C(=O)O", 24],
  ["CCN(CC)c1ccc2c(c1)Oc1ncn(N)c(=N)c1C2c1ccc(Br)cc1 (stereo not given)", 21]
]}
